# MEASUREMENT DESCRIPTION: Study #1 Phase 1: plasma and urine pharmacokinetics of Compound 1 and Compound 1A after IV infusion of Compound 1 (SAD, MAD, loading regimen)
# TEST SETTINGS: both, human, plasma, 275 mg, Cmax, Cohort 5: Compound 1 275 mg/3 hr IV, single dose, geometric mean [geometric %CV]
READOUT TYPE: Cmax (ng/mL)
Give bare numbers, in ng/mL.

# input Look up Cmax: Nc1ncccc1-c1cc(Cc2ccc(COc3ccccn3)cc2)no1
# output 3960

###

# MEASUREMENT DESCRIPTION: Study #1 Phase 1: plasma and urine pharmacokinetics of Compound 1 and Compound 1A after IV infusion of Compound 1 (SAD, MAD, loading regimen)
# TEST SETTINGS: both, human, plasma, 600 mg, Cmax, Cohort 12 loading regimen: Compound 1 600 mg/1 hr IV QD, Day 4, geometric mean
READOUT TYPE: Cmax (ng/mL)
Numbers only, in ng/mL.

# input Look up Cmax: Nc1ncccc1-c1cc(Cc2ccc(COc3ccccn3)cc2)no1
# output 17900
